- System: Escherichia coli ATCC 25922
- protocolText: MIC (minimum inhibitory concentration) test, microdilution
- Assay type: cell-based
- conditionDetails: ATCC 25922
Peptide text beside a SMILES is read from it. * marks the point of attachment. Acm = CC(=O)NC*
testReadout: MIC E. coli

// CSCC[C@H](NC(=O)[C@H](CCCNC(=N)N)NC(=O)[C@H](Cc1c[nH]c2ccccc12)NC(=O)[C@H](CCC(N)=O)NC(=O)[C@H](Cc1c[nH]c2ccccc12)NC(=O)[C@H](CCCNC(=N)N)NC(=O)[C@H](Cc1ccccc1)NC(=O)[C@H](CSCNC(C)=O)NC(=O)[C@H](CCCCN)NC(=O)[C@@H](N)CCCCN)C(=O)N[C@@H](CCCCN)C(=O)N[C@@H](CCCCN)C(=O)N[C@@H](CC(C)C)C(=O)NCC(=O)N[C@@H](C)C(=O)O [LFB F4K1] (H-KKC(Acm)FRWQWRMKKLGA-OH; N-terminus assumed) : MIC E. coli value = 20 µg/mL

---

- Test system: Escherichia coli ATCC 25922
- protocolText: MIC (minimum inhibitory concentration) test, microdilution
- Assay type: cell-based
- conditionDetails: Table 12
- Description: The bacterial strains used were: Escherichia coli ATCC 25922 and Staphylococcus aureus ATCC 25923. All strains were stored at −70° C. The bacteria were grown in 2% Bacto Peptone water (Difco 1807-17-4). All tests were performed with bacteria in mid-logarithmic growth phase. Determination of the minimum inhibitory concentration (MIC) of the peptides for bacterial strains were performed in 1% Bacto Peptone water. A standard microdilution technique with an inoculum of 2×10^6 CFU/ml was used. […]
Ends that are not written are not given here.
// values below are reported MIC E. coli
Give just the number in µg/mL; leave the unit off.

The examples below pair each entry with its known result.
{"substance": "YRWARWWRR-NH2 [LFM 17-25 A4R2,8,9W3,7Y1NH2]", "testedSystem": "Escherichia coli ATCC 25922", "unitsText": "µg/mL", "MIC E. coli": 10}
{"substance": "RWWRYWR-NH2 [LFM 18-24 R1,7 W2,3,6Y5NH2, ARG-TRP-TRP-ARG-TYR-TRP-ARG-CONH2]", "testedSystem": "Escherichia coli ATCC 25922", "unitsText": "µg/mL", "MIC E. coli": 10}
{"substance": "RRWYRWWR-NH2 [LFM 17-24 R1,2,8 W3,7Y4NH2]", "testedSystem": "Escherichia coli ATCC 25922", "unitsText": "µg/mL", "MIC E. coli": 5}

Here is the next item to consider.
# MIC E. coli (substance: YRWWRWARRW-NH2 [LFM 17-26 A7R2,8,9W3,4, 10Y1NH2] ) is 10

---

Consider the following molecules and their measured MIC E. coli readings.
- Tested on: Escherichia coli ATCC 25922
- protocolText: MIC (minimum inhibitory concentration) test, microdilution
- Type: cell-based
- conditionDetails: ATCC 25922
Peptide text beside a SMILES is read from it. * marks the point of attachment. Acm = CC(=O)NC*
Reply numerically in µg/mL, unit not repeated.

Here are 2 molecules together with their reported answers.
{"molecule": "CSCC[C@H](NC(=O)[C@H](CCCNC(=N)N)NC(=O)[C@H](Cc1c[nH]c2ccccc12)NC(=O)[C@H](CCC(N)=O)NC(=O)[C@H](Cc1c[nH]c2ccccc12)NC(=O)[C@H](CCCNC(=N)N)NC(=O)[C@H](CCCNC(=N)N)NC(=O)[C@H](CSCNC(C)=O)NC(=O)[C@H](CCCCN)NC(=O)[C@@H](N)CCCCN)C(=O)N[C@@H](CCCCN)C(=O)N[C@@H](CCCCN)C(=O)N[C@@H](CC(C)C)C(=O)NCC(=O)N[C@@H](C)C(=O)O [LFB K1] (H-KKC(Acm)RRWQWRMKKLGA-OH; N-terminus assumed)", "MIC E. coli (µg/mL)": 60}
{"molecule": "CSCC[C@H](NC(=O)[C@H](CCCNC(=N)N)NC(=O)[C@H](Cc1c[nH]c2ccccc12)NC(=O)[C@H](CCC(N)=O)NC(=O)[C@H](Cc1c[nH]c2ccccc12)NC(=O)[C@H](CCCNC(=N)N)NC(=O)[C@H](Cc1ccccc1)NC(=O)[C@H](CSCNC(C)=O)NC(=O)[C@H](CCCCN)NC(=O)[C@@H](N)Cc1ccccc1)C(=O)N[C@@H](CCCCN)C(=O)N[C@@H](CCCCN)C(=O)N[C@@H](CC(C)C)C(=O)NCC(=O)N[C@@H](C)C(=O)O [LFB F4] (H-FKC(Acm)FRWQWRMKKLGA-OH; N-terminus and C-terminus assumed)", "MIC E. coli (µg/mL)": 20}

Turning to the following molecule.
Briefly, MIC E. coli measured for CSCC[C@H](NC(=O)[C@H](CCCNC(=N)N)NC(=O)[C@H](Cc1c[nH]c2ccccc12)NC(=O)[C@H](CCC(N)=O)NC(=O)[C@H](Cc1c[nH]c2ccccc12)NC(=O)[C@H](CCCNC(=N)N)NC(=O)[C@H](CCCNC(=N)N)NC(=O)[C@H](CSCNC(C)=O)NC(=O)[C@@H](N)CCCCN)C(=O)N[C@@H](CCCCN)C(=O)N[C@@H](CCCCN)C(=O)N[C@@H](CC(C)C)C(=O)NCC(=O)N[C@@H](C)C(=O)O [LFB 18-31] (H-KC(Acm)RRWQWRMKKLGA-OH; N-terminus and C-terminus assumed) : 80
